target of assay: human mPGES-1 (Homo sapiens, UniProt O14684)
Sequence (O14684 1-152): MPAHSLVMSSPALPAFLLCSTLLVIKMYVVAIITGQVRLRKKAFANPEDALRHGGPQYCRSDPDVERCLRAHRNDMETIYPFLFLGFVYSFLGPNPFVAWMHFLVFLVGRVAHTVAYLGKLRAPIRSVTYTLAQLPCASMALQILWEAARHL

>  <structure as smiles>
CO/N=C(\C(=O)N[C@@H]1C(=O)N2C(C(=O)O)=C(CSc3nc(=O)c(=O)[nH]n3C)CS[C@H]12)c1csc(N)n1

>  <unit text>
µM

>  <IC50>
7.2

$$$$
>  <structure as smiles>
C[C@H]1[C@H](NC(=O)/C(=N\OC(C)(C)C(=O)O)c2csc(N)n2)C(=O)N1S(=O)(=O)O

>  <unit text>
µM

>  <IC50>
11.4

$$$$
>  <structure as smiles>
C=C1/C(=C\C=C2/CCC[C@]3(C)[C@@H]([C@H](C)/C=C/[C@@H](O)C4CC4)CC[C@@H]23)C[C@@H](O)C[C@@H]1O

>  <unit text>
µM

>  <IC50>
3

$$$$
>  <structure as smiles>
COc1cc(C)c(/C=C/C(C)=C/C=C/C(C)=C/C(=O)O)c(C)c1C

>  <unit text>
µM

>  <IC50>
3.5

$$$$
>  <structure as smiles>
CCOC(=O)[C@H](CCc1ccccc1)N[C@@H](C)C(=O)N1[C@H](C(=O)O)C[C@H]2CCCC[C@@H]21

>  <unit text>
µM

>  <IC50>
9

$$$$
>  <structure as smiles>
CS(=O)(=O)CCNCc1ccc(-c2ccc3ncnc(Nc4ccc(OCc5cccc(F)c5)c(Cl)c4)c3c2)o1

>  <unit text>
µM

>  <IC50>
0.8

$$$$

Provenance of the data: patent US11103509B2
